// data source = paper PMC3615439

Catalogue of pKi values
molecular target: σ1 receptors (Cavia porcellus)
Schema: pKi number; meaning minus log10 of the concentration expressed in molar units.

molecule: Clc1ccc(CCNCCNCCc2ccc(I)cc2)cc1Cl [Compound 11]
measurement_label: pKi
reported_result: 7.80
--
molecule: Fc1ccccc1CCNCCNCCc1ccc(Cl)c(Cl)c1 [Compound 4]
measurement_label: pKi
reported_result: 7.92
--
molecule: Fc1cccc(CCNCCNCCc2ccc(Cl)c(Cl)c2)c1 [Compound 5]
measurement_label: pKi
reported_result: 8.11
--
molecule: Clc1ccc(CCNCCNCCc2ccccc2Br)cc1Cl [Compound 7]
measurement_label: pKi
reported_result: 7.74
--
molecule: Clc1ccc(CCNCCNCCc2ccccc2I)cc1Cl [Compound 10]
measurement_label: pKi
reported_result: 7.37

Task: Which pKi value belongs to Clc1ccc(CCNCCNCCc2cccc(Br)c2)cc1Cl [Compound 8] ?
Output: 8.20

Task: Which pKi value belongs to Clc1ccc(CCNCCNCCc2ccc(Br)cc2)cc1Cl [Compound 9] ?
Output: 8.17

Task: Which pKi value belongs to Fc1ccc(CCNCCNCCc2ccc(Cl)c(Cl)c2)cc1 [Compound 6] ?
Output: 8.11

###

The next entries give measured IC50 for σ1 receptors (Cavia porcellus, UniProt Q60492).
The reply should contain only the number, in µM.

cpd_smiles: Clc1ccc(CCNCCNCCc2ccccc2I)cc1Cl
measured_target: σ1 receptors (Cavia porcellus, UniProt Q60492)
Sequence (Q60492 whole entry): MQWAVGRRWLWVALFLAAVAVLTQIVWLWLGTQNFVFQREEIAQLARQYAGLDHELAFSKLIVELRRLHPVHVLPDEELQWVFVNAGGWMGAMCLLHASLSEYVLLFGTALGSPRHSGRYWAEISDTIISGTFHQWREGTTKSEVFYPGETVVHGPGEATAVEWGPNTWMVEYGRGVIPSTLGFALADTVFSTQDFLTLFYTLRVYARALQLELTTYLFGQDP
IC50 / µM: 0.0625

cpd_smiles: Fc1ccccc1CCNCCNCCc1ccc(Cl)c(Cl)c1
measured_target: σ1 receptors (Cavia porcellus, UniProt Q60492)
IC50 / µM: 0.0175

cpd_smiles: Clc1ccc(CCNCCNCCc2ccccc2Br)cc1Cl
measured_target: σ1 receptors (Cavia porcellus, UniProt Q60492)
IC50 / µM: 0.0266

cpd_smiles: Clc1ccc(CCNCCNCCc2cccc(Br)c2)cc1Cl
measured_target: σ1 receptors (Cavia porcellus, UniProt Q60492)
IC50 / µM: 0.00914

cpd_smiles: Clc1ccc(CCNCCNCCc2ccc(Br)cc2)cc1Cl
measured_target: σ1 receptors (Cavia porcellus, UniProt Q60492)
IC50 / µM: 0.00985

Task: Which IC50 value belongs to Fc1cccc(CCNCCNCCc2ccc(Cl)c(Cl)c2)c1 ?
Output: 0.0112

Task: Which IC50 value belongs to Fc1ccc(CCNCCNCCc2ccc(Cl)c(Cl)c2)cc1 ?
Output: 0.0113

Task: Which IC50 value belongs to Clc1ccc(CCNCCNCCc2ccc(I)cc2)cc1Cl ?
Output: 0.0229

###

Catalogue of Hill Slope values
biological target: σ1 receptors (Cavia porcellus); test: σ1 receptor binding, competition against [3H]; design: species or system guinea pig; settings: guinea pig brain membranes; mean ± SEM
Please reply with the value in numeric form only.

cpd_smiles: Clc1ccc(CCNCCNCCc2cccc(Br)c2)cc1Cl
Hill Slope: −1.02

Task: Which Hill Slope value belongs to Fc1ccccc1CCNCCNCCc1ccc(Cl)c(Cl)c1 ?
Output: −1.07

Task: Which Hill Slope value belongs to Fc1ccc(CCNCCNCCc2ccc(Cl)c(Cl)c2)cc1 ?
Output: −1.21

Task: Which Hill Slope value belongs to Clc1ccc(CCNCCNCCc2ccccc2Br)cc1Cl ?
Output: −0.78

Task: Which Hill Slope value belongs to Clc1ccc(CCNCCNCCc2ccccc2I)cc1Cl ?
Output: −1.12

Task: Which Hill Slope value belongs to Fc1cccc(CCNCCNCCc2ccc(Cl)c(Cl)c2)c1 ?
Output: −1.13

Task: Which Hill Slope value belongs to Clc1ccc(CCNCCNCCc2ccc(Br)cc2)cc1Cl ?
Output: −1.00

Task: Which Hill Slope value belongs to Clc1ccc(CCNCCNCCc2ccc(I)cc2)cc1Cl ?
Output: −1.59
